Measured values drawn from paper PMC7762659 for this set.

test system: SiHa cells; assay: CCK8 antiproliferative activity assay on SiHa cells; assay type: cell-based, human; conditions: 48 h, read-out: IC50, antiproliferation activity on SiHa cells (PC phenolics)
measuredQuantity: IC50

INSERT INTO assay_data (molecule, testresult) VALUES
  ('O=C1CC(C(=O)O)c2c1oc(=O)c1cc(O)c(O)c(O)c21 (stereo not shown)', '> 100 µM');
